Assign efficacy (kill in %) to each entry below.
Test system: Ctenocephalides felis
Assay: Ctenocephalides felis oral (CTECFE)
Assay type: in vivo
Settings: application rate 100 ppm in citrated cattle blood; after 2 days
Method: Ctenocephalides felis Oral ([…]) Solvent: 1 part by weight of dimethyl sulphoxide For the purpose of preparing an appropriate active ingredient formulation, 10 mg of active ingredient are mixed with 0.5 ml of dimethyl sulphoxide. A portion of the concentrate is diluted with citrated cattle blood, and the desired concentration is prepared. […] After 2 days, the kill in % is determined 100% means that all of the fleas have been killed; 0% means that none of the fleas have been killed.

> print(dat)
                                   compound  experimentalvalue
1  CCn1c(C(=O)NC(c2cccc(C(F)(F)F)c2)C(F)(F)F)cc2cc(C(=O)NCC(C)(F)F)c(Cl)cc21 (centres unmarked) [Compound 10]                95%
2  CCn1c(C(=O)NC(c2cccc(Cl)c2)C(F)(F)F)cc2cc(C(=O)NC3CC3)c(Cl)cc21 (centres unmarked) [Compound 2]                95%
3  C#CCn1c(C(=O)NC(c2ccc(F)c(C(F)(F)F)c2)C(F)(F)F)nc2cc(C(=O)NC3CC3)c(Cl)cc21 (centres unmarked) [Compound 97]                95%

Quick request: efficacy (kill in %) for each listed item, please.
1. CCn1c(C(=O)NC(c2ccc(F)c(Br)c2)C(F)(F)F)cc2cc(C(=O)NC3(C#N)CC3)c(Cl)cc21 (centres unmarked) [Compound 42]
2. Cn1c(C(=O)NC(c2ccc(F)c(Br)c2)C(F)(F)F)cc2cc(C(=O)NC3(C#N)CC3)c(Cl)cc21 (centres unmarked) [Compound 52]
3. CCCn1c(C(=O)NC(c2cccc(C(F)(F)F)c2)C(F)(F)F)cc2cc(C(=O)NC3(C#N)CC3)c(Cl)cc21 (centres unmarked) [Compound 288]
4. C#CCn1c(C(=O)NC(c2ccc(F)c(Cl)c2)C(F)(F)F)cc2cc(C(=O)NC3CC3)c(Cl)cc21 (centres unmarked) [Compound 63]
5. C#CCn1c(C(=O)NC(c2cccc(C(F)(F)F)c2)C(F)(F)F)cc2cc(C(=O)NC3(C#N)CC3)c(Cl)cc21 (centres unmarked) [Compound 57]
6. C#CCn1c(C(=O)NC(c2ccc(F)c(Br)c2)C(F)(F)F)cc2cc(C(=O)NC3(C#N)CC3)c(Cl)cc21 (centres unmarked) [Compound 62]
7. CCn1c(C(=O)NC(c2ccc(F)c(Cl)c2)C(F)(F)F)nc2cc(C(=O)NC3CC3)c(Cl)cc21 (centres unmarked) [Compound 37]

Result:
1: 100%; 2: 100%; 3: 100%; 4: 100%; 5: 100%; 6: 100%; 7: 100%

Query: Please give the measured efficacy (kill in %) for this compound: CCn1c(C(=O)NC(c2ccc(F)c(C(F)(F)F)c2)C(F)(F)F)cc2cc(C(=O)NC3CC3)c(Cl)cc21 (centres unmarked) [Compound 3]
Result: 100%

###

System: Myzus persicae
Assay: Myzus test (MYZUPE spray treatment)
Format: in vivo
Settings: application rate 100 g/ha; Chinese cabbage leaf discs; after 6 days
Description: Myzus Test (MYZUPE Spray Treatment) Solvent: 78 parts by weight of acetone • • 1.5 parts by weight of dimethylformamide Emulsifier: 0.5 part by weight of alkylaryl polyglycol ether To produce an appropriate active ingredient formulation, 1 part by weight of active ingredient is mixed with the stated amounts of solvent and emulsifier, and the concentrate is diluted with emulsifier-containing water to the desired concentration. […] After 6 days, the efficacy in % is determined. […]
Exercise: for every item that follows, state its recorded efficacy in %.
Give bare numbers, in %.

Consider the worked cases shown below.
> print(dat)
                                   compound  measurementtype  experimentalvalue
1  C#CCn1c(C(=O)NC(c2ccc(F)c(Cl)c2)C(F)(F)F)nc2cc(C(=O)NC3CC3)c(Cl)cc21 (stereo not drawn)    efficacy in %                 80
2  CCn1c(C(=O)NC(c2ccc(F)c(Br)c2)C(F)(F)F)cc2cc(C(=O)NC3CC3)c(Cl)cc21 (stereo not drawn)    efficacy in %                 90

--- query ---
Query: Please give the measured efficacy in % for this compound: CCn1c(C(=O)NC(c2cccc(C(F)(F)F)c2)C(F)(F)F)cc2cc(C(=O)NC3(C#N)CC3)c(Cl)cc21 (stereo not drawn)
Result: 90
